# ELISA reading values compiled below
Target: T1, soluble KDR extracellular domain (ECD) (Calbiochem) (human, UniProt P35968 20-764)
T1 construct: extracellular domain; Bought protein; also called KDR-ECD; VEGF Receptor 2 D1-7, Cat. #676490
T1 sequence (P35968 20-764): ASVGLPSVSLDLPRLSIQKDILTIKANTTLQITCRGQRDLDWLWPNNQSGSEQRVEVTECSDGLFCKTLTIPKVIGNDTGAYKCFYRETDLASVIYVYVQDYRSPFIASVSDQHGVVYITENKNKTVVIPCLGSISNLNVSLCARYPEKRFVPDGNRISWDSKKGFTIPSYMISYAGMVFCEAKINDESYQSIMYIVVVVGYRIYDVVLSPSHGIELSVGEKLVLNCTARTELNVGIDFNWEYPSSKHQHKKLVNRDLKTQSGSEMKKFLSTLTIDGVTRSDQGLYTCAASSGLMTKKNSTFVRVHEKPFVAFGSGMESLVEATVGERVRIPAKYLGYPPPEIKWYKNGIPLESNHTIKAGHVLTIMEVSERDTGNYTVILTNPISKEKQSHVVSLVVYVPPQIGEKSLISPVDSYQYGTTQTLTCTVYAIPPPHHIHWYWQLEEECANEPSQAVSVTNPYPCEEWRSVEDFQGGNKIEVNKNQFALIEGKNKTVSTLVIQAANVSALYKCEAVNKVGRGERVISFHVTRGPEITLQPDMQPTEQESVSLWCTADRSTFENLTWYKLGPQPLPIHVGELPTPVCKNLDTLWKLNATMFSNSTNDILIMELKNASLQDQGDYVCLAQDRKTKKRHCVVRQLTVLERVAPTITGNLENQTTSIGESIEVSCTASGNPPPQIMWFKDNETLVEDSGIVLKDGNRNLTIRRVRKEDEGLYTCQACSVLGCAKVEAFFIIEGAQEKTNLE
Assay: High Antigen ELISA, KDR coat 500 ng/mL, supernatant 1:2025
property-measured: ELISA reading

>  <binder>
33C3 (antibody, V domains shown, Fully human mAb from XenoMouse hybridoma, tested as hybridoma supernatant) VH: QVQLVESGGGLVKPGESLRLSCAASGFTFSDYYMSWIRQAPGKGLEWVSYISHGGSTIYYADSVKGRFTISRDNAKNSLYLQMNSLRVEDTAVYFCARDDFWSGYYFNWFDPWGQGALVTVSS VL: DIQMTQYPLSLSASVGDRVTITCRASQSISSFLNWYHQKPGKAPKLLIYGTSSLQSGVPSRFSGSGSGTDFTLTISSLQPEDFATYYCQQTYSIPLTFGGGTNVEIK

>  <property-measured>
ELISA reading

>  <quantitative-result>
0.84

$$$$
>  <binder>
32F4 (antibody, V domains shown, Fully human mAb from XenoMouse hybridoma, tested as hybridoma supernatant) VH: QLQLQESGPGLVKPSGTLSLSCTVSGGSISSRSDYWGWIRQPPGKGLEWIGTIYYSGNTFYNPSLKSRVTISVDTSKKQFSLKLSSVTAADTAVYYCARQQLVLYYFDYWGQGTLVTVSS VL: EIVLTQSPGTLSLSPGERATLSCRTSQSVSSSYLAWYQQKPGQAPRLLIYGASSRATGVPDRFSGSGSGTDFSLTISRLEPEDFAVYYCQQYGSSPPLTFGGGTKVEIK

>  <property-measured>
ELISA reading

>  <quantitative-result>
2.71

$$$$
>  <binder>
29A3 (antibody, V domains shown, Fully human mAb from XenoMouse hybridoma, tested as hybridoma supernatant) VH: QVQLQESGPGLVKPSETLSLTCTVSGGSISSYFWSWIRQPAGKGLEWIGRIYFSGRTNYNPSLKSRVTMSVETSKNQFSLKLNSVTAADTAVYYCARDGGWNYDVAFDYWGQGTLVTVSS VL: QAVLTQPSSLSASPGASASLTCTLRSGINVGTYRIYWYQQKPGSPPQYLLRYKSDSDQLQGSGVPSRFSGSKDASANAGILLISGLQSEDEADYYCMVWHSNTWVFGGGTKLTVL

>  <property-measured>
ELISA reading

>  <quantitative-result>
1.91

$$$$
>  <binder>
21A1 (antibody, V domains shown, Fully human mAb from XenoMouse hybridoma, tested as hybridoma supernatant) VH: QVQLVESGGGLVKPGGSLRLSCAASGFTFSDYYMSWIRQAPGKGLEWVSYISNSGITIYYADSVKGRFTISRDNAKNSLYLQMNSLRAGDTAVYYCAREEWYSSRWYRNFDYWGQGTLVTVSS VL: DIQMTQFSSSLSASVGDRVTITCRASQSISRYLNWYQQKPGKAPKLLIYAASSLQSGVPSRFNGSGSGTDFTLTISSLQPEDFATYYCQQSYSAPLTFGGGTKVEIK

>  <property-measured>
ELISA reading

>  <quantitative-result>
1.66

$$$$
>  <binder>
31E11 (antibody, V domains shown, Fully human mAb from XenoMouse hybridoma, tested as hybridoma supernatant) VH: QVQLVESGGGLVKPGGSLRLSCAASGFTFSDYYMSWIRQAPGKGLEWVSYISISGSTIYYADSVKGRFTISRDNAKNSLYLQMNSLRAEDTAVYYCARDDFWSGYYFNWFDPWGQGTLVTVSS VL: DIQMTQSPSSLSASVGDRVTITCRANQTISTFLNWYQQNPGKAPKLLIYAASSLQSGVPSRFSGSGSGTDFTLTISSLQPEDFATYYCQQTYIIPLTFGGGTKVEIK

>  <property-measured>
ELISA reading

>  <quantitative-result>
1.81

$$$$
>  <binder>
21H9 (antibody, V domains shown, Fully human mAb from XenoMouse hybridoma, tested as hybridoma supernatant) VH: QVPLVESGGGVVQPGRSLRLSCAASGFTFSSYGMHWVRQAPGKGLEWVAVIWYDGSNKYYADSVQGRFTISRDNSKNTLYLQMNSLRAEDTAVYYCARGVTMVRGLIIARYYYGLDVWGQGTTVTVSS VL: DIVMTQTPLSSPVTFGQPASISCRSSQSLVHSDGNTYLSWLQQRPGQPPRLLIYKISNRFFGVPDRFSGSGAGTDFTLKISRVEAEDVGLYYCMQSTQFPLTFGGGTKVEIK

>  <property-measured>
ELISA reading

>  <quantitative-result>
0.7

$$$$
>  <binder>
32G7 (antibody, V domains shown, Fully human mAb from XenoMouse hybridoma, tested as hybridoma supernatant) VH: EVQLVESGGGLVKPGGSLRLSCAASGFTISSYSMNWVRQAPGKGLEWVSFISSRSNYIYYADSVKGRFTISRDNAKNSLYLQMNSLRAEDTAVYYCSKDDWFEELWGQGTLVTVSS VL: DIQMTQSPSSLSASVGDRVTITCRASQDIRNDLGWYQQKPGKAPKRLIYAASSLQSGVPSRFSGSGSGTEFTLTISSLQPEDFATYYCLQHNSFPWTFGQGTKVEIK

>  <property-measured>
ELISA reading

>  <quantitative-result>
0.38

$$$$
>  <binder>
21H6 (antibody, V domains shown, Fully human mAb from XenoMouse hybridoma, tested as hybridoma supernatant) VH: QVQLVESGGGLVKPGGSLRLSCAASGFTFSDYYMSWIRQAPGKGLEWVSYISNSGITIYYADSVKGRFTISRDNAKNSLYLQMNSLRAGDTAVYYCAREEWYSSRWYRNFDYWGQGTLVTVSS VL: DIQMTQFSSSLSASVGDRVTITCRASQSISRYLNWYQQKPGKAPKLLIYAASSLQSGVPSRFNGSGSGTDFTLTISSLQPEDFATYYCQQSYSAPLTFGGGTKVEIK

>  <property-measured>
ELISA reading

>  <quantitative-result>
2.91

$$$$
>  <binder>
27A3 (antibody, V domains shown, Fully human mAb from XenoMouse hybridoma, tested as hybridoma supernatant) VH: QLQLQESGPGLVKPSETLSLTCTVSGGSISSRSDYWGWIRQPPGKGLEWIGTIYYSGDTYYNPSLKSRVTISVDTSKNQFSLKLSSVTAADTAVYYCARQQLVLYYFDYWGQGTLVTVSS VL: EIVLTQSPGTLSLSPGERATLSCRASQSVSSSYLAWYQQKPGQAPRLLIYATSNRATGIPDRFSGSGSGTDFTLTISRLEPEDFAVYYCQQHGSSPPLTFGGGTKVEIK

>  <property-measured>
ELISA reading

>  <quantitative-result>
2.05

$$$$
